Test system: HCT-116 colon
Experiment: NCI tumour cell line growth inhibition, 48 h
quantityName: TGI

>  <molecule>
CCC(=O)Nc1ccc(NC(C#N)c2cccc(Oc3ccccc3)c2)cc1 (centres undefined)

>  <quantityName>
TGI

>  <result>
> 100 µM

$$$$
>  <molecule>
COCc1cc(C(=O)Nc2cc([C@H]3CC[C@@H](OC(=O)NC(C)C)C3)[nH]n2)n(C)n1

>  <quantityName>
TGI

>  <result>
43 µM

$$$$
>  <molecule>
CC1(C)OC(=O)N(c2ccccc2)C12C=Cc1cccc([N+](=O)[O-])c1O2 (centres undefined)

>  <quantityName>
TGI

>  <result>
> 100 µM

$$$$
>  <molecule>
COC1CC(COCc2ccccc2)CC(OC)O1 (centres undefined)

>  <quantityName>
TGI

>  <result>
> 100 µM

$$$$
>  <molecule>
CN(/N=C/c1cccc2cccnc12)c1ccc(Cl)cc1[N+](=O)[O-]

>  <quantityName>
TGI

>  <result>
> 100 µM

$$$$
>  <molecule>
COC(=O)c1cc(O)c2cc3c(cc2c1-c1cc(OC)c(OC)c(OC)c1)OCO3

>  <quantityName>
TGI

>  <result>
> 100 µM

$$$$
>  <molecule>
Cc1c(N2CCN(C)CC2)nc2ccc(Cl)cc2c1-c1ccccc1

>  <quantityName>
TGI

>  <result>
40 µM

$$$$
>  <molecule>
COC(O)C(=O)c1ccc2c(c1)CC1(C2)Cc2cc3c(cc2C1=O)CCC3 (centres undefined)

>  <quantityName>
TGI

>  <result>
34.8 µM

$$$$
>  <molecule>
O=C(c1ccccc1)C(CN1CCCCC1)c1ccccc1 (centres undefined)

>  <quantityName>
TGI

>  <result>
2.46 µM

$$$$
>  <molecule>
COc1ccc(/C=C2\CCS(=O)(=O)c3ccccc3C2=O)cc1

>  <quantityName>
TGI

>  <result>
31.2 µM

$$$$
>  <molecule>
Cc1nnc(-c2cccc(-c3ccc(C(=O)NCC4CC4)cc3)c2)o1

>  <quantityName>
TGI

>  <result>
> 25 µM

$$$$
>  <molecule>
NC(Cc1ccc(N(CCCl)CCCl)cc1)C(=O)NC(CCC(=O)O)C(=O)O (centres undefined)

>  <quantityName>
TGI

>  <result>
> 100 µM

$$$$
>  <molecule>
CC1=C(c2ccccc2)NC(=S)C(C)C(c2ccccc2)=N1 (centres undefined)

>  <quantityName>
TGI

>  <result>
> 100 µM

$$$$
>  <molecule>
O=c1[nH]c(=S)[nH]c2c1CN(CCCN1CCOCC1)CN2

>  <quantityName>
TGI

>  <result>
> 100 µM

$$$$
>  <molecule>
O=[P+](O)c1ccsc1

>  <quantityName>
TGI

>  <result>
> 100 µM

$$$$
>  <molecule>
CCCCCCCCCCCCCCCCCCNC(=S)/N=C\C1=C(O)c2ccccc2C1=O

>  <quantityName>
TGI

>  <result>
15.3 µM

$$$$
>  <molecule>
NC(=O)Cc1nc2c(N)ncnc2n1C1OC(CO)C(O)C1O (centres undefined)

>  <quantityName>
TGI

>  <result>
> 100 µM

$$$$
>  <molecule>
CCN(CC)CC(O)CNc1c2ccc([N+](=O)[O-])cc2nc2cc(OC)c(OC)cc12 (centres undefined)

>  <quantityName>
TGI

>  <result>
0.636 µM

$$$$
>  <molecule>
O=c1ncc(F)cn1C1OC(CO)C(O)C1O (centres undefined)

>  <quantityName>
TGI

>  <result>
> 100 µM

$$$$
>  <molecule>
CC(C)=CCC[C@](C)(O)[C@H]1CC[C@]2(C)[C@@H]1CC[C@@H]1[C@@]3(C)CC/C(=N/O)C(C)(C)[C@@H]3CC[C@]12C

>  <quantityName>
TGI

>  <result>
27.2 µM

$$$$
>  <molecule>
CS(=O)(=O)c1ccc(N=C/C=C/Nc2ccc(S(C)(=O)=O)cc2)cc1

>  <quantityName>
TGI

>  <result>
> 100 µM

$$$$
>  <molecule>
CC(=O)C1=C(O)C=C2Oc3c(C(=O)/C=C/c4c(Cl)cccc4Cl)c(O)c(C)c(O)c3[C@]2(C)C1=O

>  <quantityName>
TGI

>  <result>
2.7 µM

$$$$
>  <molecule>
C[C@@]12CCC[C@@](C)(C(=O)O)C1CC[C@]13C[C@@](O)(CO)[C@](O)(CCC12)C3 (some centres undefined)

>  <quantityName>
TGI

>  <result>
> 100 µM

$$$$
>  <molecule>
CC(C)[C@H](NC(=O)[C@H](N)Cc1ccc(N(CCCl)CCCl)cc1)C(=O)O

>  <quantityName>
TGI

>  <result>
> 100 µM

$$$$
>  <molecule>
O=C1C2=C(CC3=C(C2)CS(=O)(=O)C3)C(=O)C2=C1CC1=C(C2)CS(=O)(=O)C1

>  <quantityName>
TGI

>  <result>
28.5 µM

$$$$
>  <molecule>
C=C(CCC/C(C)=C/C=C/[C@@H](C)CCCc1ccoc1)C[C@@H]1OC(=O)[C@H](C)[C@@H]1O

>  <quantityName>
TGI

>  <result>
> 50 µM

$$$$
>  <molecule>
O=C(Nc1ccncc1)C(=O)c1cn(S(=O)(=O)c2ccc(Cl)cc2)c2ccccc12

>  <quantityName>
TGI

>  <result>
> 48.9 µM

$$$$
>  <molecule>
CCC/C(=N\NC(=S)N1CC2CCC(CC2)C1)c1ccccn1

>  <quantityName>
TGI

>  <result>
0.86 µM

$$$$
>  <molecule>
O=C1C(=O)N(c2cccc(C(F)(F)F)c2)C(=S)N1c1ccccc1

>  <quantityName>
TGI

>  <result>
> 100 µM

$$$$

Source: PubChem BioAssay (NCI)
